Target: T1, biotin-labeled cynomolgus monkey CD137 fused to human IgG1 Fc fragment (cynomolgus monkey, UniProt Q07011 24-186 (human entry), limits assumed, biotin-labeled)
T1 construct: also called cyno CD137-Fc; not shown: human IgG1 Fc fragment
T1 chain: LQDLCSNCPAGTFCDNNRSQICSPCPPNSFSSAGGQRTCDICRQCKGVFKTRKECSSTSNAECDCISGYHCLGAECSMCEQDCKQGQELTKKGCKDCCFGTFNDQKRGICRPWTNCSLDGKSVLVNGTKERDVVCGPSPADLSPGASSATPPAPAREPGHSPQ
Assay: bead ELISA (chemiluminescence), purified IgG on biotin labeled cyno CD137-Fc on streptavidin beads
// values below are reported RLU
Metric Name: RLU (RLU)

Binder	Metric Name	Observed Measurement
DXDU01_3#072 (antibody, human IgG1, V domains shown, IgG: VH joined to human IgG1 CH1-Fc; also called dBBDu122) VH: QVQLVESGGGLVQPGRSLRLSCAASGFTFSNAWMHWVRQAPGKGLEWVAQIKDRSQLYAAYYAPSVKGRFTISRDDSKNSIYLQMNSLKTEDTAVYYCHYVHYASASTVLGAYGVDAWGQGTTVTVSS VL: DIVMTQSPLSLPVTPGEPASISCRSSQSLVHSNRNTYLHWYQQKPGQAPRLLIYKVSNRFSGVPDRFSGSGSGTDFTLKISRVEAEDVGVYYCGQGTQVPYTFGQGTKLEIK	RLU	3350
DADU01_3#001 (antibody, human IgG1, V domains shown, IgG: VH joined to human IgG1 CH1-Fc; also called dBBDu_126; dBBDu126) VH: QVQLVESGGGLVQPGRSLRLSCAASGFTFSIAWMHWVRQAPGKGLEWVAQIKDRVNAYEAYYAPSVKGRFTISRDDSKNSIYLQMNSLKTEDTAVYYCRYVHYASYYDLLGYGGVDAWGQGTTVTVSS VL: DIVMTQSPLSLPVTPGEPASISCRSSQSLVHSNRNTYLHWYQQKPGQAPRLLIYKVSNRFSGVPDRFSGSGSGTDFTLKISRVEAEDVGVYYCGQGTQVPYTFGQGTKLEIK	RLU	1210
DADU01_3#002 (antibody, human IgG1, V domains shown, IgG: VH joined to human IgG1 CH1-Fc; also called dBBDu124) VH: QVQLVESGGGLVQPGRSLRLSCAASGFTFSNAWMHWVRQAPGKGLEWVAQIKDKQNLYNAYYAESVKGRFTISRDDSKNSIYLQMNSLKTEDTAVYYCHYVHYASASTVLPAFGVDAWGQGTTVTVSS VL: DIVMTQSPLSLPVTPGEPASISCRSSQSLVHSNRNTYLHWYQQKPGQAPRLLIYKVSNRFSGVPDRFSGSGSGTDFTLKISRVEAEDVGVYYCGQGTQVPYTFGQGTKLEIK	RLU	10800
DADU01_3#018 (antibody, human IgG1, V domains shown, IgG: VH joined to human IgG1 CH1-Fc; also called dBBDu123) VH: QVQLVESGGGLVQPGRSLRLSCAASGFTFSNAWMHWVRQAPGKGLEWVAQIKDRANSYNAYYAPSVKGRFTISRDDSKNSIYLQMNSLKTEDTAVYYCHYVHYSAASTLLPSFGVDAWGQGTTVTVSS VL: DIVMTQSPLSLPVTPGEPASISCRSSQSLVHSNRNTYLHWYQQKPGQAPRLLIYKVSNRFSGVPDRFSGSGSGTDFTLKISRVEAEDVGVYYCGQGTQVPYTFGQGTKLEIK	RLU	6200
